In this section we review reported pIC50 values for a set of compounds.
# System: HeLa
# procedure_summary: Cytotoxicity against human HeLa cells after 48 hrs by MTT assay
# Type: functional, cell-based
Scale note: pIC50 = -log10(concentration in M).

compound: C=C(C)[C@]12C[C@@H](C)[C@@]34OC(c5ccccc5)(O[C@@H]1[C@@H]3[C@@H]1O[C@]1(CO)[C@@H](O)[C@@]1(O)[C@H]4C[C@H](C)[C@@H]1O)O2 [ORTHOBENZOATE]
endpoint_label: pIC50
recorded_number: 4.50

compound: C=C(C)[C@]12C[C@@H](C)[C@]34OC5(CCCCCCC[C@H](C)[C@@H]6[C@@H]3[C@]3(O[C@]6(C)OC3=O)[C@H](O)[C@@]3(CO)O[C@H]3[C@H]4[C@H]1O5)O2
endpoint_label: pIC50
recorded_number: 4.55

Let us examine a further case.
Form: item C=C(C)[C@@]12O[C@@]3(c4ccccc4)O[C@@H]1[C@@H]1[C@@H]4O[C@]4(CO)[C@@H](O)[C@]4(O)C(=O)[C@@H](C)C[C@H]4[C@@]1(O3)[C@H](C)[C@H]2OC(=O)c1ccccc1 ; test system HeLa; pIC50: 4.69
